Test: Bioavailability (10 mg/kg, p.o.) in Sprague Dawley rats
Type: ADME, organism-based
Settings: rat, in vivo, po
Would you mind telling me the reported bioavailability of each entry?
Answers are plain numbers, in %.

Look over these answered cases.
{"columns": ["SMILES NOTATION", "EXPERIMENTAL RESULT"],
 "data": [
  ["CCOc1cc(-c2cccnc2)cnc1Nc1cccc(C)n1", 38],
  ["CCOc1cccnc1Nc1ccccn1", 16],
  ["CCOc1cc(-c2cnccc2C)cnc1Nc1cccc(C)n1", 8]
]}

Quick batch: bioavailability for everything below.
1. CCOc1cc(C#N)cnc1Nc1cccc(C)n1
2. CCOc1cc(-c2cncnc2)cnc1Nc1cccc(C)n1
3. CCOc1cc(-c2cccc(F)c2)cnc1Nc1cccc(C)n1
4. CCOc1cc(-c2ccccn2)cnc1Nc1cccc(C)n1

Response line:
[13, 67, 19, 0]

---

Assay: Bioavailability (10 mg/kg, p.o.) was determined in Sprague Dawley rats
Format: ADME, organism-based
Settings: rat, in vivo, po
ASSAY METRIC: bioavailability (%)
Give bare numbers, in %.

# molecule CCOc1cccnc1Nc1cccc(C)n1 ; its bioavailability = 11

---

Experiment: Volume of distribution (2 mg/kg, iv.) was determined in Sprague Dawley rats
Assay type: ADME, organism-based
Details: rat, in vivo
ASSAY METRIC: Vd (L/kg)
One number for each entry, in L/kg.

{"columns": ["SMILES NOTATION", "UNIT LABEL", "EXPERIMENTAL RESULT"],
 "data": [
  ["CCOc1cccnc1Nc1ccccn1", "L/kg", 2.9]
]}

Quick batch: Vd for everything below.
1. CCOc1cc(-c2cccc(F)c2)cnc1Nc1cccc(C)n1
2. CCOc1cc(-c2ccccn2)cnc1Nc1cccc(C)n1
3. CCOc1cc(C#N)cnc1Nc1cccc(C)n1
4. CCOc1cccnc1Nc1cccc(C)n1

Response line:
1. 3
2. 6.1
3. 7
4. 1.2

---

Would you mind telling me the reported Vd of each entry?
Assay: Volume of distribution (2 mg/kg, iv.) was determined in Sprague Dawley rats; not determined
Type: ADME, organism-based
Conditions: rat, in vivo
Numbers only, in L/kg.

Quick batch: Vd for everything below.
1. CCOc1cc(-c2cncnc2)cnc1Nc1cccc(C)n1
2. CCOc1cc(-c2cnccc2C)cnc1Nc1cccc(C)n1
3. CCOc1cc(Oc2cccnc2)cnc1Nc1cccc(C)n1

Response line:
[2.3, 4.7, 3.7]
